Biological target: IL-18 receptor (heterodimeric surface receptor composed of α- and β-chains) on KG-1 cells
Assay: cell-based or functional assay
endpoint: NF-κB KG-1 EC50 (ng/ml), av.

binder	readout value
human IL-18 C38S, C68D, D157C (SEQ ID NO:8) monopegylated at C157 with 40K PEG (ligand, methoxy polyethylene glycol maleimide, 40,000 Da, on Cys 157, also called IL-18 C157PEG40K; 157C-40K) YFGKLESKLSVIRNLNDQVLFIDQGNRPLFEDMTDSDSRDNAPRTIFIISMYKDSQPRGMAVTISVKDEKISTLSCENKIISFKEMNPPDNIKDTKSDIIFFQRSVPGHDNKMQFESSSYEGYFLACEKERDLFKLILKKEDELGDRSIMFTVQNEC	278 ng/mL
human IL-18 C38S, C68D, L144C (SEQ ID NO:7) monopegylated at C144 with 40K PEG (ligand, methoxy polyethylene glycol maleimide, 40,000 Da, on Cys 144, also called IL-18 C144PEG40K) YFGKLESKLSVIRNLNDQVLFIDQGNRPLFEDMTDSDSRDNAPRTIFIISMYKDSQPRGMAVTISVKDEKISTLSCENKIISFKEMNPPDNIKDTKSDIIFFQRSVPGHDNKMQFESSSYEGYFLACEKERDLFKLILKKEDECGDRSIMFTVQNED	300 ng/mL
human IL-18 C38S, C68S, D157C (SEQ ID NO:10) monopegylated at C157 with 20K PEG (ligand, methoxy polyethylene glycol maleimide, 20,000 Da, on Cys 157, also called IL-18 C157PEG20K; 157C-20K) YFGKLESKLSVIRNLNDQVLFIDQGNRPLFEDMTDSDSRDNAPRTIFIISMYKDSQPRGMAVTISVKSEKISTLSCENKIISFKEMNPPDNIKDTKSDIIFFQRSVPGHDNKMQFESSSYEGYFLACEKERDLFKLILKKEDELGDRSIMFTVQNEC	54 ng/mL
human IL-18 C38S, C68S, D157C (SEQ ID NO:10) monopegylated at C157 with 30K PEG (ligand, methoxy polyethylene glycol maleimide, 30,000 Da, on Cys 157, also called IL-18 C157PEG30K; 157C-30K) YFGKLESKLSVIRNLNDQVLFIDQGNRPLFEDMTDSDSRDNAPRTIFIISMYKDSQPRGMAVTISVKSEKISTLSCENKIISFKEMNPPDNIKDTKSDIIFFQRSVPGHDNKMQFESSSYEGYFLACEKERDLFKLILKKEDELGDRSIMFTVQNEC	47 ng/mL
human IL-18 C38S, C68S, D157C (SEQ ID NO:10) (ligand, Non-pegylated substitution mutant; also called IL-18 C157 (C38S, C68S, D157C)) YFGKLESKLSVIRNLNDQVLFIDQGNRPLFEDMTDSDSRDNAPRTIFIISMYKDSQPRGMAVTISVKSEKISTLSCENKIISFKEMNPPDNIKDTKSDIIFFQRSVPGHDNKMQFESSSYEGYFLACEKERDLFKLILKKEDELGDRSIMFTVQNEC	2 ng/mL

Just for reference, patent US20050008615A1 is where these values come from.
